system: T1, OTR401 (Artificial, UniProt Q9XDM8 SEQ:1-184)
T1 chain: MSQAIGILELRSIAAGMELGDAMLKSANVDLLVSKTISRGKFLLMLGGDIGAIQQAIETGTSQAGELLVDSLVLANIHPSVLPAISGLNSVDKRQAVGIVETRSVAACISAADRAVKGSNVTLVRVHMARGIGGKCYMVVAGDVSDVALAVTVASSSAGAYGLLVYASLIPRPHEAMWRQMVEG
experiment.summary: fluorescence quenching kinetics koff/kon, PBS, room temp
applied.conditions: tags: C-terminal His6; chain copies: 24 (inferred); label: Atto488 5'
reported.endpoint: Kd (nM)
Use nM as the unit, but write only the number.

Prompt: Consider the binder TTAATTAAAGACTTCAAGCGG (ssDNA) [Atto488-ssDNA (A488-DNA)] and give its measured Kd.
Completion: 16.1
